# experiment_summary: qHTS Assay for Rab9 Promoter Activators; note: nearly all actives have a fitted effect of over 60% in size
# particulars: Huh7 Rab9 promoter-luciferase reporter, luminescence, 24 h; series mostly up to 9.22 µM
Among all 320,000 compounds or so, about 9,100 (2.8%) were called active. Not shown: some 3% with an inconclusive outcome. Calls come from the whole dose curve; as a rule, active = well fitted activation curve with a large enough effect; inconclusive = small, poorly fitted or top-dose-only effect; inactive = no such curve, though single readings can be large or run the other way. The list comes from a sample in which actives are over-represented; it also holds close analogues and randomly drawn compounds.
Select the matching outcome among active, inactive

Some solved entries appear below for comparison.
molecule=O=C(c1ccc(N2CCOCC2)c([N+](=O)[O-])c1)N1CCN(S(=O)(=O)c2cccs2)CC1 cat=inactive
molecule=O=C(c1cc(COc2c(F)cccc2F)on1)N1CCSCC1 cat=active
molecule=CCN(CC(=O)Nc1ccccc1C(F)(F)F)C(=O)C1CCN(C(=O)Nc2ccccc2)CC1 cat=inactive
molecule=COc1cc2c(cc1OC)CC1(CCCCC1)N=C2 cat=inactive
molecule=Cc1ccc(C)c(OCc2cc(C(=O)N3CCN(c4cnccn4)CC3)no2)c1 cat=inactive
molecule=Cc1cc2oc(C(=O)Nc3c(C)n(C)n(-c4ccccc4)c3=O)c(C)c2cc1Cl cat=inactive
molecule=O=C(c1cc(COc2ccc(F)c(F)c2)on1)N1CCOCC1 cat=inactive
molecule="CC(c1ccccn1)N(C)C(=O)c1ccc2nc(Cc3cccc(Cl)c3)oc2c1 (stereo unspecified)" cat=active

Task item: I'd appreciate the recorded outcome for `O=C(c1cc(COc2cccc(C(F)(F)F)c2)on1)N1CCSCC1` from this test.
Reply: inactive

Task item: // repeat for `O=C(NC1CCCCCC1)C1CCN(C(=O)c2ccc(Cl)cc2)CC1` and report
Reply: inactive

Task item: // repeat for COc1ccc(C2(C)ON(c3ccccc3C(F)(F)F)C2=O)cc1 (stereo unspecified) and report
Reply: inactive

Task item: // repeat for COc1ccc(Cc2nc3ccc(C(=O)N4CCC(N(C)C)C4)cc3o2)cc1 (stereo unspecified) and report
Reply: inactive

----------
# experiment_summary: qHTS Assay for Rab9 Promoter Activators; note: nearly all actives have a fitted effect of over 60% in size
# particulars: Huh7 Rab9 promoter-luciferase reporter, luminescence, 24 h; series mostly up to 9.22 µM
The whole screen tested about 320,000 compounds, of which about 9,100 (2.8%) were called active. Another 3% or so got no clear call; they are omitted. Calls come from the whole dose curve; as a rule, active = well fitted activation curve with a large enough effect; inconclusive = small, poorly fitted or top-dose-only effect; inactive = no such curve, though single readings can be large or run the other way. This excerpt belongs to a sample that is enriched for actives.
Select the matching outcome among TRUE (active), FALSE (inactive)

Some solved entries appear below for comparison.
molecule=CNS(=O)(=O)c1ccc(C(=O)NCC(=O)NCCc2ccc3c(c2)OCCO3)cc1 cat=FALSE
molecule=CCC1=NN2C(=N)/C(=C/c3cc(C)n(-c4ccccc4)c3C)C(=O)N=C2S1 cat=FALSE
molecule=O=C(OCC(=O)N1CCc2ccccc21)c1ccc([N+](=O)[O-])cc1 cat=FALSE

Task item: I'd appreciate the recorded outcome for `CCS(=O)(=O)C1=NSC2=NC(=O)/C(=C\c3cc(C)n(-c4cccc(OC)c4)c3C)C(=N)N21` from this test.
Reply: FALSE

Task item: // repeat for `CCOc1ccc(NC(=O)c2ccc(NC(=O)COC(=O)c3ccc(NC(=O)CC#N)cc3)cc2)cc1` and report
Reply: TRUE

Task item: // repeat for N#Cc1ccc(OCC(=O)NC(=O)NC2CCS(=O)(=O)C2)cc1 (stereo not given) and report
Reply: FALSE

Task item: // repeat for Cc1ccc(-c2noc(C3CCCN(C(=O)c4cccc(Cl)c4)C3)n2)o1 (stereo not given) and report
Reply: TRUE

Task item: // repeat for `O=C1C=C(c2cccc(Cl)c2)C[C@@H](c2ccc(F)cc2)C1` and report
Reply: FALSE

Task item: // repeat for `CCOc1ccc(C(=O)Nc2ccncc2)cc1` and report
Reply: FALSE

Task item: // repeat for `CCOc1cccc(NC(=O)CC#N)c1` and report
Reply: FALSE

Cited source: PubChem BioAssay AID485297
